FYI, the data here is from patent US20100068698A1.

test system: infectious H77S (GT 1a virus); experiment: HCV infectious virus EC50 determination (HCV RNA by quantitative RT-PCR in infected Rof-0c cells); assay type: cell-based, Hepatitis C virus genotype 1a; settings: Hepatitis C virus, GT1A, 72 h, 96-well plate, virus stock grown in human serum, three days post-infection, read-out: potency against infectious H77S (EC50, 50% reduction in HCV RNA)
pEC50: −log10 of the molar value.
MEASUREMENT_KIND: pEC50

• CNC(=O)c1c(-c2ccc(F)cc2)oc2cc(N(CCO)S(C)(=O)=O)c(C3CC3)cc12 [HCV-796] = 7.49
